Reported pEC50 is given for each of the following compounds.
# System: MMP13 in SW1353 cells
# PROTOCOL_SUMMARY: OSM/IL-1β signaling assay (MMP13 levels in SW1353 cells);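 further: secreted MMP13 captured by antibody, activated with APMA and its activity read by fluorescence, inhibition scaled between vehicle-treated triggered wells (0%) and untriggered wells (100%)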
# Type: cell-based
# ASSAY_SETUP: Homo sapiens; SW1353 cells, OSM and IL-1β triggered, MMP13 levels 48 hours after triggering; read-out: MMP13 EC50
pEC50: −log10 of the molar value.

Consider the worked cases shown below.
| COMPOUND | pEC50 |
| --- | --- |
| O=C(Nc1nc2cccc(-c3ccc(OCc4ncon4)cc3)n2n1)C1CC1 | 6.30 to 9.00 |
| CC1CN(C(=O)c2ccc(-c3cccc4nc(NC(=O)C5CC5)nn34)cc2)CC(C)O1 (stereo not shown) | < 6.00 |
| O=C(Nc1nc2cccc(-c3ccc(C(=O)N4CCN(c5cccc(Cl)c5)CC4)cc3)n2n1)C1CC1 | < 6.00 |

// next entry
Item under review: CC(=O)N(Cc1cccnc1)c1ccc(-c2cccc3nc(NC(=O)C4CC4)nn23)cc1 . Reported pEC50? < 6.00

Hello, the source for this data is patent US10206907B2, in case you need it.
